Target Under Test: UniProtKB P11511
Sequence (P11511 1-503): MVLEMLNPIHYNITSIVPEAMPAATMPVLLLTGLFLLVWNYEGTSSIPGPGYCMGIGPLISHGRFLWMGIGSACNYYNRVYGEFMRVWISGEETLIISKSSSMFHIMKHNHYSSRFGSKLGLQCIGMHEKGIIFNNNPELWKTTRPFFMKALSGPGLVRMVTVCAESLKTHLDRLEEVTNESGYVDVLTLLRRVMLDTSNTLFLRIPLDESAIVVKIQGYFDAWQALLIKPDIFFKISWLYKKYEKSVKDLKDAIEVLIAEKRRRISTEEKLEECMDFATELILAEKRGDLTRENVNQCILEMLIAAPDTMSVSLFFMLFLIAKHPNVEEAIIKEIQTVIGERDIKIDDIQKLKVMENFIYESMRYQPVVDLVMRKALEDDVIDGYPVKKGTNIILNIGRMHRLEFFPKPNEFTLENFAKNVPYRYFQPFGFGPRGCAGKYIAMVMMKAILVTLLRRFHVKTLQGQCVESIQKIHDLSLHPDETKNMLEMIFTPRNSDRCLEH
Sorting guide: entries reporting IC50 beneath 800 nM go in the YES pile, the rest go in the NO pile.

                                   compound  class
0  C[C@]12C=CC(=O)C[C@H]1C[C@H](O)[C@@H]1[C@@H]2CC[C@]2(C)OC(=O)CC[C@@H]12    YES
1  C[C@]12CC[C@H]3[C@@H](CC[C@]45O[C@H]4[C@@H](O)C=C[C@]35C)[C@@H]1CCC(=O)O2     NO
2  C[C@]12C=CC(=O)C=C1CC[C@@H]1[C@@H]2CC[C@]2(C)OC(=O)CC[C@@H]12 [Compound 1, reference compound]    YES
3  C[C@]12CC[C@@H](O)C[C@H]1CC[C@@H]1[C@@H]2[C@@H](O)C[C@]2(C)OC(=O)CC[C@@H]12    YES
